Listed here are molecules together with their documented growth at 10 µM.
System: OVCAR-8
assay.procedure: Growth inhibition of human OVCAR8 cells assessed as cell growth at 10^-5 M incubated for 48 hrs by sulforhodamine B assay relative to control
Assay type: functional
settings: OVCAR-8, 48 h, read-out: Activity
Give just the number in %; leave the unit off.

[
  {
    "molecular.string": "O=C1NC(=O)C(=Cc2cccn2CCCn2c3ccccc3c(=O)c3ccccc32)C(=O)N1",
    "unit.text": "%",
    "growth at 10 µM": 101
  },
  {
    "molecular.string": "O=C1Nc2ccccc2/C1=C/c1cccn1CCCCn1c2ccccc2c(=O)c2ccccc21",
    "unit.text": "%",
    "growth at 10 µM": 58.8
  },
  {
    "molecular.string": "O=C1NC(=O)C(=Cc2cccn2CCCCn2c3ccccc3c(=O)c3ccccc32)C(=O)N1",
    "unit.text": "%",
    "growth at 10 µM": 86.4
  },
  {
    "molecular.string": "O=C1/C(=C\\c2cccn2CCCCCn2c3ccccc3c(=O)c3ccccc32)c2ccccc2N1c1c(Cl)cccc1Cl",
    "unit.text": "%",
    "growth at 10 µM": 97.7
  },
  {
    "molecular.string": "O=C1Nc2ccccc2/C1=C/c1cccn1CCCCCn1c2ccccc2c(=O)c2ccccc21",
    "unit.text": "%",
    "growth at 10 µM": 45.6
  }
]

Read the next record carefully.
Problem: growth at 10 µM lookup needed for O=C1/C(=C\c2cccn2CCCCCCn2c3ccccc3c(=O)c3ccccc32)c2ccccc2N1c1c(Cl)cccc1Cl , thanks.
Result: 98.5
